B1: TMEM106C (parent)
chain: TVPEILVHNIVIFMRTSVKISYIG

# Variants of: B1
# Protocol Description: protein stability index of a GFP-peptide fusion (GPS, HEK-293T) (PSI 1-6); higher = more stable;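 note: lentivirally expressed fusions sorted by FACS into six bins by GFP to DsRed ratio, PSI derived from sequencing read proportions per bin multiplied by bin number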
# Setup Conditions: c terminus: a fixed tail appended
Readout Kind: protein stability index

I12R ... 3.25
T16N ... 2.98
I23V ... 2.4
N9L ... 3.14
H8P ... 3.19
I12C ... 2.8
S21L ... 3.4
G24T ... 2.06
V2G ... 2.98
M14Q ... 3.58
I10T ... 2.67
M14P ... 3.45
M14Y ... 2.6
I23P ... 3.49
I20E ... 3.72
V11S ... 3.97
G24H ... 2.84
V11D ... 2.52
K19P ... 2.88
M14E ... 3.79
L6A ... 3.67
K19G ... 2.77
